- System: FBXW7
- Protocol notes: 3' UTR reporter interaction score (median-centred robust z-score of log2 firefly/Renilla activity); higher = less repression of the 3' UTR reporter
- Condition parameters: HEK293T; 48 h
Returns the class for an entry based on its 3' UTR reporter interaction score. Class ranges: group 1 (below -0.6), group 2 (-0.6 to below 0.5), group 3 (0.5 or more)

# Residues, Classification
records = [
    ("UGUGCUUGCUCGUCCCGCCCGCAG", "group 2"),
    ("UCCGAGCCUGGGUCUCCCUCU", "group 3"),
    ("AACUGGCCUACAAAGUCCCAG", "group 2"),
    ("CUCUAGAGGGAAGCACUUUCU", "group 1"),
    ("UGGCUCAGUUCAGCAGGAACAG", "group 2"),
]

input: For this sequence, which bin applies? "CUGACCUAUGAAUUGACAGCC"
output: group 2

input: Next entry: "UAUGUAAUAUGGUCCACAUCUU"
output: group 3

input: Similarly, "CAUCUUACCGGACAGUGCUGGA" ?
output: group 2

input: Same question for "AAUCCUUUGUCCCUGGGUGAGA" please.
output: group 2

input: What about this sequence? "UUAAUGCUAAUCGUGAUAGGGG"
output: group 2

* * *

- Tested on: PHOX2B
- Protocol notes: 3' UTR reporter interaction score (median-centred robust z-score of log2 firefly/Renilla activity); higher = less repression of the 3' UTR reporter
- Condition parameters: HEK293T; 48 h
Threshold rule: 3' UTR reporter interaction score greater than or equal to -0.1 is 1; below that, -1.

# Residues, Classification
measured = [
    ("GAAGGCGCUUCCCUUUGGAGU", 1),
    ("UGUAAACAUCCCCGACUGGAAG", 1),
    ("UUGGCCACAAUGGGUUAGAAC", 1),
    ("CCACUGCCCCAGGUGCUGCUGG", 1),
    ("AAAGUGCUGCGACAUUUGAGCGU", 1),
]

input: I'd appreciate it if you could say whether "UUGUGCUUGAUCUAACCAUGU" has 3' UTR reporter interaction score at least equal to -0.1.
output: -1

input: Now give it for "AAAGUGCAUCUUUUUAGAGGAU" too.
output: 1

input: Same thing, different sequence: "UCAGUCUCAUCUGCAAAGAAG"
output: 1

* * *

- Tested on: NOTCH1
- Protocol notes: 3' UTR reporter interaction score (median-centred robust z-score of log2 firefly/Renilla activity); higher = less repression of the 3' UTR reporter
- Condition parameters: HEK293T; 48 h
Response key: TRUE means 3' UTR reporter interaction score >= -0.5; FALSE means 3' UTR reporter interaction score < -0.5.

input: Given the entry "CUGGCCCUCUCUGCCCUUCCGU" , answer whether its 3' UTR reporter interaction score meets or surpasses -0.5.
output: FALSE

input: Another sequence: "UUCACCACCUUCUCCACCCAGC"
output: TRUE

input: // same read-out, input: "GUUCAAAUCCAGAUCUAUAAC"
output: TRUE

input: // next record "UUUCCUAUGCAUAUACUUCUUU"
output: FALSE

input: Moving on to the next sequence: "UGAGGUAGUAGGUUGUAUAGUU"
output: TRUE

input: Lookup "UCAGUGCAUCACAGAACUUUGU"
output: TRUE

input: And for "AGGGUAAGCUGAACCUCUGAU" ?
output: FALSE

* * *

- System: HRAS
- Protocol notes: 3' UTR reporter interaction score (median-centred robust z-score of log2 firefly/Renilla activity); higher = less repression of the 3' UTR reporter
- Condition parameters: HEK293T; 48 h
We begin with a simple list: items and their reported 3' UTR reporter interaction score.
Enter the number alone.

Examples with their reported 3' UTR reporter interaction score follow.
# Residues, 3' UTR reporter interaction score
data = [
    ("AUCAUGAUGGGCUCCUCGGUGU", 0.527),
    ("GGAGAAAUUAUCCUUGGUGUGU", -0.545),
    ("AGUGGUUUUACCCUAUGGUAG", -0.669),
    ("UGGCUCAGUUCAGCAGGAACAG", -1.16),
    ("UUUAGGAUAAGCUUGACUUUUG", -0.108),
]

input: What reported 3' UTR reporter interaction score corresponds to "UAAAUCCCAUGGUGCCUUCUCCU" on HRAS?
output: -0.598

input: How about "UAAGGUGCAUCUAGUGCAGAUA" ?
output: -0.481

* * *

- Test system: FBXW7
- Protocol notes: 3' UTR reporter interaction score (median-centred robust z-score of log2 firefly/Renilla activity); higher = less repression of the 3' UTR reporter
- Condition parameters: HEK293T; 48 h
Property measured: 3' UTR reporter interaction score
Lab note: jot the number down without any unit.

# Residues, Property measured, Value observed
records = [
    ("AUUCCUAGAAAUUGUUCAUA", "3' UTR reporter interaction score", 0.157),
    ("UAGCACCAUCUGAAAUCGGUU", "3' UTR reporter interaction score", -3.02),
    ("AGGUUGACAUACGUUUCCC", "3' UTR reporter interaction score", -0.16),
    ("AGGAAUGUUCCUUCUUUGCC", "3' UTR reporter interaction score", -2.13),
]

input: Record "UAGUAGACCGUAUAGCGUACG" : what is its 3' UTR reporter interaction score with FBXW7?
output: -0.321

input: Another sequence: "UGAGCUAAAUGUGUGCUGGGA"
output: -0.406

input: How about "AGAUCGACCGUGUUAUAUUCGC" ?
output: -0.751

* * *

Each item that follows carries a reported 3' UTR reporter interaction score.
- System: MYCN
- Protocol notes: 3' UTR reporter interaction score (median-centred robust z-score of log2 firefly/Renilla activity); higher = less repression of the 3' UTR reporter
- Condition parameters: HEK293T; 48 h
Enter the number alone.

Solved cases (2 shown):
# Residues, Assayed system, 3' UTR reporter interaction score
records = [
    ("UAUUGCACUUGUCCCGGCCUG", "MYCN", 1.23),
    ("AGGCACCAGCCAGGCAUUGCUCAGC", "MYCN", -0.343),
]

input: Field request: 3' UTR reporter interaction score | item: "UGAGGUAGUAAGUUGUAUUGUU"
output: -4.78

input: Okay, and "UGAGGUAGUAGUUUGUGCUGU" ?
output: -3.97

input: Now the same for "UCCUGUACUGAGCUGCCCCGAG"
output: 0.364

input: Try this sequence too: "CUUUCAGUCGGAUGUUUACAGC"
output: 0

input: Please do the same for "UAAAGUGCUUAUAGUGCAGGUAG" as well.
output: -0.791

input: What would you report for "CUUCUUGUGCUCUAGGAUUGU" ?
output: 0.82

* * *

- Test system: TP53
- Protocol notes: 3' UTR reporter interaction score (median-centred robust z-score of log2 firefly/Renilla activity); higher = less repression of the 3' UTR reporter
- Condition parameters: HEK293T; 48 h
Assign class by 3' UTR reporter interaction score: not lower than -0.06 means T; lower than -0.06 means F.

Check out these entries, answers already filled in.
# Residues, Assayed system, Classification
rows = [
    ("GAUUGCUCUGCGUGCGGAAUCGAC", "TP53", "F"),
    ("AAGUGCUGUCAUAGCUGAGGUC", "TP53", "T"),
    ("UUGGUCCCCUUCAACCAGCUGU", "TP53", "F"),
    ("CAACGGAAUCCCAAAAGCAGCU", "TP53", "F"),
    ("GCCCCUGGGCCUAUCCUAGAA", "TP53", "F"),
]

input: API: above_or_equal(metric=3' UTR reporter interaction score, cutoff=-0.06) for item "AGGACCUGCGGGACAAGAUUCUU"
output: F

input: Follow-up entry: "UGUCUGCCCGCAUGCCUGCCUCU"
output: F

* * *

- System: HRAS
- Protocol notes: 3' UTR reporter interaction score (median-centred robust z-score of log2 firefly/Renilla activity); higher = less repression of the 3' UTR reporter
- Condition parameters: HEK293T; 48 h
// values below are reported 3' UTR reporter interaction score
Respond numerically, and do not add a unit to the figure.

# Residues, Property measured, Value observed
data = [
    ("CAGUGCAAUGUUAAAAGGGCAU", "3' UTR reporter interaction score", -0.0408),
    ("AACUGGCCCUCAAAGUCCCGCUUU", "3' UTR reporter interaction score", 1.58),
    ("AGGGUGUUUCUCUCAUCUCU", "3' UTR reporter interaction score", 0.396),
]

input: What does the data say about its 3' UTR reporter interaction score? Entry: "UUGAAACAAUCUCUACUGAAC"
output: -0.263

input: Here is the next sequence: "UCCCUGUCCUCCAGGAGCUCA"
output: 0.998

input: Next entry: "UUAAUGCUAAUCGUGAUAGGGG"
output: 0.347

input: Next entry: "GUUGGAGGAUGAAAGUACGGAGUGAU"
output: -0.155

input: Now the sequence "ACCCUAUCAAUAUUGUCUCUGC"
output: -0.283

input: Entry "GUGUCUGCUUCCUGUGGGA" please
output: -2.48

input: How about "GCUGGGCAGGGCUUCUGAGCUCCUU" ?
output: -0.298

input: Similarly, "AAGCCUGCCCGGCUCCUCGGG" ?
output: 0.291

input: Same question, "AUCACAUUGCCAGGGAUUUCC" this time
output: -0.452

input: Then "GAGCUUAUUCAUAAAAGUGCAG" ?
output: 0.562

input: And then "GAUGAGCUCAUUGUAAUAUG" , what is it?
output: 0.049

input: Record: "UAGGUUAUCCGUGUUGCCUUCG"
output: 0.327
